- assay_explanation: Thermodynamic solubility test
- Assay type: physicochemical
- test_conditions: aqueous buffer, thermodynamic from solid; phosphate buffer 50 mM, pH 7.4, 24 hours, ambient temperature
readout: solubility thermodynamic at 24 h

INSERT INTO results (compound, reported_value) VALUES
  ('O=C(c1c(F)cccc1F)N(COP(=O)(O)O)c1cnc(-c2cc3oc(C4CC4)cc3cc2Cl)cn1 [Compound 18]', '> 200 µM');

###

- assay_explanation: Pharmacokinetic evaluation experiment in mice (intravenous or intraperitoneal injection of compound 6)
- Assay type: in vivo, C57BL/6 mice
- test_conditions: male, C57BL/6, mouse, plasma, intravenous injection, 1 mg/kg, read-out: Vdss
- Protocol: Purpose of the experiment: male C57BL/6 mice were used as test animals, and the plasma drug concentrations of the test compounds were determined by LC/MS/MS at different time points after intravenous or intraperitoneal injection. The pharmacokinetic behavior of the test compound in mice was studied to evaluate its pharmacokinetic characteristics. […]
readout: Vd (L/kg)

INSERT INTO results (smiles_code, reported_value) VALUES
  ('O=C(Nc1cnc(-c2cc3oc(C4CC4)cc3cc2Cl)cn1)c1c(F)cccc1F', 1.77);
